- Method: A CellTox Green Cytotoxicity Assay to monitor cytotoxicity in HEK293 cells - 40 hour (AID 1224871); further: nearly all actives have a fitted effect of over 45% in size
- Condition info: CellTox Green fluorescence; series mostly up to 76.8 µM
Results filed as inconclusive are left out. Calls of active or inactive are those of the source. The call rests on the fitted dose curve; in most records, active means well fitted activation curve with a large enough effect in the repeat runs; inconclusive means weak or mixed curves; inactive means flat fitted curve, though single readings scatter.
Lab note: assign the record to one of active, inactive

**Query** // outcome(item) with item = `Cc1cc(=O)oc2cc(N(C)C)ccc12`
**Result** inactive

**Query** // outcome(item) with item = `Cc1cc(O)c(C(C)(C)C)cc1C(C)(C)C`
**Result** active

**Query** // outcome(item) with item = `C[C@]12CCC(=O)C=C1CC[C@@H]1[C@@H]2[C@@H](O)C[C@@]2(C)[C@H]1CC[C@]2(O)C(=O)COC(=O)CCC(=O)O`
**Result** inactive

**Query** // outcome(item) with item = `C=CC(=O)OCCn1c(=O)n(CCOC(=O)C=C)c(=O)n(CCOC(=O)C=C)c1=O`
**Result** active

* * *

- Target desc: Nuclear receptor ROR-gamma (Homo sapiens) (UniProt P51449)
- Method: qHTS assay to identify small molecule antagonists of the retinoid-related orphan receptor gamma (ROR-gamma) signaling pathway (AID 1159521; further: nearly all actives have a fitted effect of over 50% in size)
- Condition info: Tet-on RORgamma CHO cells, RORE-luciferase, 16 h; series mostly up to 92.4 µM
Results filed as inconclusive are left out. Activity calls are given as the source filed them. Calls follow the shape of the dose curve; as a rule, active = well fitted inhibition curve with a large enough effect in the repeat runs; inconclusive = weak or mixed curves, or effect the other way; inactive = no such curve, though single readings can be large or run the other way.
Lab note: assign the record to one of active, inactive

**Query** // outcome(item) with item = `Cc1cc(=O)oc2cc(N(C)C)ccc12`
**Result** inactive

**Query** // outcome(item) with item = `CCCCN(CCCC)C(=O)N(CCCC)CCCC`
**Result** inactive

**Query** // outcome(item) with item = `COc1c(C)c2c(c(O)c1C/C=C(\C)CCC(=O)O)C(=O)OC2`
**Result** active

**Query** // outcome(item) with item = `C[n+]1ccn(Cc2ccccc2)c1`
**Result** inactive

**Query** // outcome(item) with item = `C[C@H](CCC(=O)O)[C@H]1CC[C@H]2[C@@H]3CC[C@@H]4C[C@H](O)CC[C@]4(C)[C@H]3CC[C@]12C`
**Result** inactive

**Query** // outcome(item) with item = `CCCC(c1cc(C(C)(C)C)c(O)cc1C)c1cc(C(C)(C)C)c(O)cc1C`
**Result** active

* * *

- Method: A CellTox Green Cytotoxicity Assay to monitor cytotoxicity in HepG2 cells - 40 hour (AID 1224879); further: nearly all actives have a fitted effect of over 40% in size
- Condition info: CellTox Green fluorescence; series mostly up to 76.8 µM
Results filed as inconclusive are left out. Calls of active or inactive are those of the source. Calls follow the shape of the dose curve; as a rule, active = well fitted activation curve with a large enough effect in the repeat runs; inconclusive = weak or mixed curves; inactive = flat fitted curve, though single readings scatter.
Lab note: assign the record to one of y for active, n for inactive

**Query** // outcome(item) with item = `CCOC(=O)c1nc(C(Cl)(Cl)Cl)n(-c2ccc(Cl)cc2Cl)n1`
**Result** n

**Query** // outcome(item) with item = `C[C@]12CCC(=O)C=C1CC[C@@H]1[C@@H]2[C@@H](O)C[C@@]2(C)[C@H]1CC[C@]2(O)C(=O)COC(=O)CCC(=O)O`
**Result** n

**Query** // outcome(item) with item = `C[C@@H](NCCCc1cccc(C(F)(F)F)c1)c1cccc2ccccc12`
**Result** y

**Query** // outcome(item) with item = `CCCCCCCCCCCC[N+](C)(C)CCCCCCCCCCCC`
**Result** y

**Query** // outcome(item) with item = `CCN1/C(=C/C=C/c2sc3ccccc3[n+]2CC)Sc2ccccc21`
**Result** y

**Query** // outcome(item) with item = `NC(=O)NS(=O)(=O)c1ccc(N)cc1`
**Result** n

**Query** // outcome(item) with item = `CN1CCC(Nc2ncc3ncnc(Nc4ccc(F)c(Cl)c4)c3n2)CC1`
**Result** y

**Query** // outcome(item) with item = `N/C(=N\N=C\c1ccc(Cl)cc1)N/N=C/c1ccc(Cl)cc1`
**Result** y

**Query** // outcome(item) with item = `C/C=C1/C(=O)C[C@H]2[C@@H]3CCC4=CC(=O)CC[C@]4(C)[C@H]3CC[C@]12C`
**Result** y

**Query** // outcome(item) with item = Cc1cccc(CN2CCN(C(c3ccccc3)c3ccc(Cl)cc3)CC2)c1 (stereo not given)
**Result** n

* * *

- Method: qHTS assay to identify small molecule agonists of the progesterone receptor (PR) signaling pathway - cell viability counter screen (AID 1346799); further: nearly all actives have a fitted effect of over 45% in size
- Condition info: PR-UAS-bla HEK293T viability, CellTiter-Glo luminescence, 16 h; series mostly up to 92.4 µM
Inconclusive results are not listed. Activity calls are given as the source filed them. Calls come from the whole dose curve.
Lab note: assign the record to one of active, inactive

**Query** // outcome(item) with item = `COc1cc(-c2nc(NC(=O)c3cc4cc(C)cc(C)c4n3CC(=O)O)sc2CCC2CCCCC2)c(OC)cc1Cl`
**Result** active

**Query** // outcome(item) with item = `C/C=C(\C)C(=O)OCc1ccccc1`
**Result** inactive

**Query** // outcome(item) with item = `Cc1cc(CCN2CCN(c3nsc4ccccc34)CC2)cc2c1NC(=O)CC2(C)C`
**Result** active

**Query** // outcome(item) with item = CCCN(CCC)C(=O)C(CCC(=O)OCCCN1CCN(CCOC(=O)Cc2c(C)n(C(=O)c3ccc(Cl)cc3)c3ccc(OC)cc23)CC1)NC(=O)c1ccccc1 (configuration not stated)
**Result** inactive

**Query** // outcome(item) with item = `NNC(=O)c1cccc(C(=O)NN)c1`
**Result** inactive

**Query** // outcome(item) with item = `CN1CCC(Nc2ncc3ncnc(Nc4ccc(F)c(Cl)c4)c3n2)CC1`
**Result** active

**Query** // outcome(item) with item = `O=C(OCC(COC(=O)c1ccccc1)(COC(=O)c1ccccc1)COC(=O)c1ccccc1)c1ccccc1`
**Result** inactive

* * *

- Method: qHTS assay to identify small molecule agonists of the vitamin D receptor (VDR) signaling pathway - cell viability counter screen (AID 743224); further: nearly all actives have a fitted effect of over 50% in size
- Condition info: VDR-bla HEK293T viability, CellTiter-Glo luminescence, 16 h; series mostly up to 62.6 µM
Inconclusive results are not listed. Activity calls are given as the source filed them. The call rests on the fitted dose curve; in most records, active means well fitted cell-killing curve with a large enough effect in the repeat runs; inconclusive means weak or mixed curves, or effect the other way; inactive means no such curve, though single readings can be large or run the other way.
Lab note: assign the record to one of Y for active, N for inactive

**Query** // outcome(item) with item = CC(NN)c1ccccc1 (stereo unspecified)
**Result** N

**Query** // outcome(item) with item = `CCCCCOC(=O)CCCC`
**Result** N

**Query** // outcome(item) with item = `Cc1onc(-c2c(Cl)cccc2Cl)c1C(=O)N[C@@H]1C(=O)N2[C@@H]1SC(C)(C)[C@@H]2C(=O)O`
**Result** N

**Query** // outcome(item) with item = `CC(C)n1nc(-c2cc3cc(O)ccc3[nH]2)c2c(N)ncnc21`
**Result** Y

**Query** // outcome(item) with item = `CCN1/C(=C/C=C/c2sc3ccccc3[n+]2CC)Sc2ccccc21`
**Result** Y

**Query** // outcome(item) with item = `CNC(=O)c1ccccc1`
**Result** N

* * *

- Method: A CellTox Green Cytotoxicity Assay to monitor cytotoxicity in HepG2 cells - 32 hour (AID 1224883); further: nearly all actives have a fitted effect of over 50% in size
- Condition info: CellTox Green fluorescence; series mostly up to 76.8 µM
Records with an inconclusive call do not appear. Calls of active or inactive are those of the source. The call rests on the fitted dose curve; in most records, active means well fitted activation curve with a large enough effect in the repeat runs; inconclusive means weak or mixed curves; inactive means flat fitted curve, though single readings scatter.
Lab note: assign the record to one of true (1) = active, false (0) = inactive

**Query** // outcome(item) with item = `CCCCCCCCCCCCCCCS(=O)(=O)Oc1ccccc1`
**Result** false (0)

**Query** // outcome(item) with item = `OCCN1CCN(CC/C=C2/c3ccccc3Sc3ccc(C(F)(F)F)cc32)CC1`
**Result** true (1)

**Query** // outcome(item) with item = CCCCCCCCCCCCCC[P+](CCCC)(CCCC)CCCC (tested in a mixture with another compound)
**Result** true (1)

**Query** // outcome(item) with item = CCC(C)Nc1ccc(NC(C)CC)cc1 (stereo unspecified)
**Result** true (1)

**Query** // outcome(item) with item = `Cc1ccc(O)c2ncccc12`
**Result** true (1)

**Query** // outcome(item) with item = CCCCC(CC)CN=C(N)NC(N)=NCCCCCCN=C(N)NC(N)=NCC(CC)CCCC (stereo unspecified)
**Result** true (1)

* * *

- Method: qHTS assay to identify small molecule antagonists of the peroxisome proliferator-activated receptor delta (PPARd) signaling pathway - cell viability counter screen (AID 743213); further: nearly all actives have a fitted effect of over 50% in size
- Condition info: PPARd-bla HEK293H viability, CellTiter-Glo luminescence, 17 h; series mostly up to 62 µM
Inconclusive results are not listed. Active and inactive are the calls of the source. The call rests on the fitted dose curve; in most records, active means well fitted cell-killing curve with a large enough effect in the repeat runs; inconclusive means weak or mixed curves; inactive means no such curve, though single readings can be large or run the other way.
Lab note: assign the record to one of yes = active, no = inactive

**Query** // outcome(item) with item = `OCCCCCCCCCCCCBr`
**Result** no

**Query** // outcome(item) with item = `Clc1ccccc1C(c1ccccc1)(c1ccccc1)n1ccnc1`
**Result** no

**Query** // outcome(item) with item = `CCCCCCCCCCCC(=O)NCCCN(C)C`
**Result** yes

**Query** // outcome(item) with item = `NNc1nc(-c2ccc(N)cc2)cs1`
**Result** no

**Query** // outcome(item) with item = `CS(=O)(=O)CCNCc1ccc(-c2ccc3ncnc(Nc4ccc(OCc5cccc(F)c5)c(Cl)c4)c3c2)o1`
**Result** yes

**Query** // outcome(item) with item = `Cc1onc(-c2c(Cl)cccc2Cl)c1C(=O)N[C@@H]1C(=O)N2[C@@H]1SC(C)(C)[C@@H]2C(=O)O`
**Result** no
